The reported measurements were obtained from patent US12258327B2.

Recorded log10(IC50) values for a group of compounds are listed next.
molecular target: EGFR del19/C797S (Homo sapiens, UniProt P00533, C797S/DEL746-750); test: Biochemical EGFR kinase assay (Lance Ultra TR-FRET), double mutant del19/C797S; settings: Km ATP; read-out: IC50 del19/C797S, Km ATP
Sequence (P00533 with tags, fused parts or gaps DEL746-750/C797S): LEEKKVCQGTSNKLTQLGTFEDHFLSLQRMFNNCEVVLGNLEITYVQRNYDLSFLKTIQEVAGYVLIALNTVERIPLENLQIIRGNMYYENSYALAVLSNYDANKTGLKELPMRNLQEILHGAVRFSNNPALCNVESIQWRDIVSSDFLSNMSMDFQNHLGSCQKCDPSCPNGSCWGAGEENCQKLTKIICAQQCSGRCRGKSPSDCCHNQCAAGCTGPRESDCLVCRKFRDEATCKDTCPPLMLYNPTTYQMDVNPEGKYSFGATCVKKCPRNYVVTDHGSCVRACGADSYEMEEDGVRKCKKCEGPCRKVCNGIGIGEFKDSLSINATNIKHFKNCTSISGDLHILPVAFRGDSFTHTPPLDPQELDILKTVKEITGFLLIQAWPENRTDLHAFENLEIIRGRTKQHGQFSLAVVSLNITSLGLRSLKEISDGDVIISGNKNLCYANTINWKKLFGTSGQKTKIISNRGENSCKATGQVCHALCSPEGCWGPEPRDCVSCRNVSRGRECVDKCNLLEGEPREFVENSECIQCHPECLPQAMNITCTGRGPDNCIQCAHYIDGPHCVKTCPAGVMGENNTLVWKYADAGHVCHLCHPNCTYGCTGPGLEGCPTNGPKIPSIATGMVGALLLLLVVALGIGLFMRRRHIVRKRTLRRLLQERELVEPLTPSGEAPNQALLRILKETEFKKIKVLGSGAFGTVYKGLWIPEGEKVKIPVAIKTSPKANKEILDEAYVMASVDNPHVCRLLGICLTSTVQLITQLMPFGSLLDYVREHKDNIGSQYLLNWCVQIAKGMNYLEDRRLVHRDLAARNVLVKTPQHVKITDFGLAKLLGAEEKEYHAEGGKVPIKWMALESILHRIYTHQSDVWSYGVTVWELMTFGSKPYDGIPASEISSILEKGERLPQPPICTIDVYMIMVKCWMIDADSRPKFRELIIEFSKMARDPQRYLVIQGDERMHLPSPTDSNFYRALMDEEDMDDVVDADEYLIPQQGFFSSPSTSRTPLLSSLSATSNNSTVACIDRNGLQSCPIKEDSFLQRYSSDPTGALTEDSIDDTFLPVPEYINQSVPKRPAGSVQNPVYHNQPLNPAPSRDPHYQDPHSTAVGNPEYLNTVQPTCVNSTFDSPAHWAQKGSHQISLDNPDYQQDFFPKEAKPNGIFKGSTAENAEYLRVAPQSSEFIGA
Could you please treat all values as log10 of IC50 in nM?

| compound | numeric_value |
| --- | --- |
| C[C@]1(O)CC[C@@H](Nc2nc(Nc3ccnc(-c4cnn(S(=O)(=O)C5CC5)c4)c3)ncc2-c2ccn(C(F)F)n2)CC1 [Example 355] | 1.04 |
| CN1CCC(n2ccc(-c3cnc(Nc4ccnc(-c5cnn(CC(F)F)c5)n4)cc3N[C@H]3CC[C@@](C)(O)CC3)n2)CC1 [Example 342] | 0.26 |
| OCC[C@H]1CC[C@@H](Nc2cc(Nc3ccnc(-c4cnn(CC(F)F)c4)n3)ncc2-c2ccn(CC(F)(F)F)n2)CC1 [Example 338] | 1.12 |

Challenge: Look up log10(IC50) for this compound: Cn1nc(-c2cnc(Nc3ccnc(-c4cnn(CC(F)F)c4)n3)cc2N[C@H]2CC[C@@](C)(O)CC2)cc1C(F)(F)F [Example 331]
Response given: 1.08

Challenge: Look up log10(IC50) for this compound: O=S(=O)(C1CC1)n1cc(-c2cc(Nc3ncc(-c4ccn(CCC(F)(F)F)n4)c(N[C@H]4CC[C@@H](F)CC4)n3)ccn2)cn1 [Example 367]
Response given: 2.59

Challenge: Look up log10(IC50) for this compound: FC(F)Cn1cc(-c2nccc(Nc3cc(N[C@H]4CC[C@@H](F)CC4)c(-c4ccn(CC(F)(F)F)n4)cn3)n2)cn1 [Example 339]
Response given: 3.03

Challenge: Look up log10(IC50) for this compound: Cn1nc(-c2cnc(Nc3ccnc(-c4cnn(S(=O)(=O)C5CC5)c4)c3)nc2N[C@H]2CC[C@@H](F)CC2)cc1C(F)(F)F [Example 371]
Response given: 1.59

Challenge: Look up log10(IC50) for this compound: O=S(=O)(C1CC1)n1cc(-c2cc(Nc3ncc(-c4ccn(CC(F)(F)F)n4)c(N[C@H]4CC[C@@H](F)CC4)n3)ccn2)cn1 [Example 366]
Response given: 2.40

Challenge: Look up log10(IC50) for this compound: Cn1nc(-c2cnc(Nc3ccnc(N4CCC(O)C(F)(F)C4)n3)cc2NC2CCC(C)(O)CC2)cc1C(F)(F)F (stereo not drawn) [Example 353]
Response given: 2.12

Challenge: Look up log10(IC50) for this compound: C[C@]1(O)CC[C@@H](Nc2cc(Nc3ccnc(-c4cnn(S(=O)(=O)C5CC5)c4)n3)nnc2-c2ccn(CC(F)(F)F)n2)CC1 [Example 374]
Response given: 2.38

Challenge: Look up log10(IC50) for this compound: CC1(O)CCC(Nc2cc(Nc3ccnc(N4CCC(O)C(F)(F)C4)n3)ncc2-c2ccn(C(F)F)n2)CC1 (stereo not drawn) [Example 348]
Response given: 2.13

---

Recorded IC50 values for a group of compounds are listed next.
target: EGFR L858R/T790M/C797S (Homo sapiens, UniProt P00533, C797S/L858R/T790M); experiment: Biochemical EGFR kinase assay (Lance Ultra TR-FRET), triple mutant L858R/T790M/C797S; conditions: Km ATP; read-out: IC50 L858R/T790M/C797S (nM) Km ATP
Sequence (P00533 25-1210 T790M/C797S/L858R): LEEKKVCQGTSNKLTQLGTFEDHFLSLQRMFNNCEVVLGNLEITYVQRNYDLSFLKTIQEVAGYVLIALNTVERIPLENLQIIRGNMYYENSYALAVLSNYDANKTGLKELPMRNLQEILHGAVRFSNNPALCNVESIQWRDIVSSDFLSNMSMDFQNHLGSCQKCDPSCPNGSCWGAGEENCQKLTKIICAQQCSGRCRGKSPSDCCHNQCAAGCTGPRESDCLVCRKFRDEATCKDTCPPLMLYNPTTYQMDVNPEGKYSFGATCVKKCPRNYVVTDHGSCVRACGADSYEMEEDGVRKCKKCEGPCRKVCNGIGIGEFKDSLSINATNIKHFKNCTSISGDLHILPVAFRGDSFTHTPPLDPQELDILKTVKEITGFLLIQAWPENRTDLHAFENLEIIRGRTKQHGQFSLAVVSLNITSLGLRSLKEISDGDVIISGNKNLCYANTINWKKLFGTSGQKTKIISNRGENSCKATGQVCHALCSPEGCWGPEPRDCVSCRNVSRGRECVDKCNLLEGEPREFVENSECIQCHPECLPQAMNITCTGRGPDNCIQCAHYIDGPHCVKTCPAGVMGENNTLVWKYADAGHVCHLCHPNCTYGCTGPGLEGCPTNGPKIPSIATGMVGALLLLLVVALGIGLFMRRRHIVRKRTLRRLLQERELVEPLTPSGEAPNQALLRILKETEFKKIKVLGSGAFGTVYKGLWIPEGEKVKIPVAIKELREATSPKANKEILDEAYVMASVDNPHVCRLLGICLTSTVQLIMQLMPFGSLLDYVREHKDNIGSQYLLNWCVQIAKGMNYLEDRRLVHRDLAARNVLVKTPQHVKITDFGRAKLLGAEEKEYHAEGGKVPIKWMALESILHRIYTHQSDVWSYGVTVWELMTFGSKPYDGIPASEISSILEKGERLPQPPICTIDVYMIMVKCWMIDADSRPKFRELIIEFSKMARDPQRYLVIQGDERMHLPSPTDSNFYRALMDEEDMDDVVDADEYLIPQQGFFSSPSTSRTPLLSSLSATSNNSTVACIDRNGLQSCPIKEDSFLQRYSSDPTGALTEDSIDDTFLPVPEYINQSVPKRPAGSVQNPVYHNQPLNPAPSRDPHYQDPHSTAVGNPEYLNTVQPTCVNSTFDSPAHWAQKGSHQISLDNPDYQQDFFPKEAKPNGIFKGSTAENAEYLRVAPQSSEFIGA
Output spec: scalar in nM, unitless text.

The cases that follow already have their IC50 on record.
| smiles_entry | IC50 [nM] |
| --- | --- |
| CN(C)C[C@H]1CC[C@H](CNc2cc(Nc3ccnc(-c4cnn(S(=O)(=O)C5CC5)c4)n3)ncc2-c2csc(C(F)(F)F)n2)CC1 | 0.1 |
| O=C1CC[C@]2(CC[C@H](Nc3cc(Nc4ccnc(-c5cnn(S(=O)(=O)C6CC6)c5)n4)ncc3-c3csc(C(F)(F)F)n3)CC2)N1 | 0.4 |

Challenge: Look up IC50 for this compound: C[C@]1(O)CC[C@@H](Nc2cc(Nc3ccnc(-c4cnn(S(=O)(=O)C5CCCC5)c4)n3)ncc2-c2ccn(C(F)F)n2)CC1
Response given: 1.3

---

target: EGFR wildtype (WT) (Homo sapiens, UniProt P00533); experiment: Biochemical EGFR kinase assay (Lance Ultra TR-FRET), wildtype; conditions: Km ATP; read-out: IC50 WT (nM) Km ATP
Sequence (P00533 25-1210): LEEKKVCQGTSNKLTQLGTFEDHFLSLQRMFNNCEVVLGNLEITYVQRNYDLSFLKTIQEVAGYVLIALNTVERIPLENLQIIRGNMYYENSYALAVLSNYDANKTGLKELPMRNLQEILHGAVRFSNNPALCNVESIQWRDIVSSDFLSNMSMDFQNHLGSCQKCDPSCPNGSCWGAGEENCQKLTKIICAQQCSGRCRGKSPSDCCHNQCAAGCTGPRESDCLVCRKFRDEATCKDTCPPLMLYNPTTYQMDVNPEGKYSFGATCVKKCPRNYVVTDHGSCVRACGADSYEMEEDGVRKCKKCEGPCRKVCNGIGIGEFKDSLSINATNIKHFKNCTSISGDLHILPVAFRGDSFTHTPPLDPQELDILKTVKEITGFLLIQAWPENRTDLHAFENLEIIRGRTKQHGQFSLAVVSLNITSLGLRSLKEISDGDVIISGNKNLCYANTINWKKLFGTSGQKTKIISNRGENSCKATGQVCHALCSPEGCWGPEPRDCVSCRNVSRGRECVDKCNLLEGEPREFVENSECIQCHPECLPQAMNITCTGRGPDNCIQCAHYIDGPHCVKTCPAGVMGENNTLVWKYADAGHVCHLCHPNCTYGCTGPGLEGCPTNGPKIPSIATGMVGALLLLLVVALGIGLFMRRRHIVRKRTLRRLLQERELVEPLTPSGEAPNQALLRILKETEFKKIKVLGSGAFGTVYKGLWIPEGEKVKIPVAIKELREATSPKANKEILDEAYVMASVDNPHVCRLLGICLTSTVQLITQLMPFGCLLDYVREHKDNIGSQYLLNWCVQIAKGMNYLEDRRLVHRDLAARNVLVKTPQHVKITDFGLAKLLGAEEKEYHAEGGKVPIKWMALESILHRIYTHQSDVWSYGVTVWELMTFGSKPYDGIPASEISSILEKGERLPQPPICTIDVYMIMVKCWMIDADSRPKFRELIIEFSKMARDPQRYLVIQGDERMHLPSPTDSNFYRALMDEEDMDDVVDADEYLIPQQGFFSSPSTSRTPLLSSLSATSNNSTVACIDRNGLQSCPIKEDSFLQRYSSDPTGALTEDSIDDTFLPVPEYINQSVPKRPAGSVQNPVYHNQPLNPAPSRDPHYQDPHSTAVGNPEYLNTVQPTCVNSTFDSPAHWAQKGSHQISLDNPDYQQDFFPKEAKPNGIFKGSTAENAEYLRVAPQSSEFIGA
Recorded log10 IC50 values for a group of compounds are listed next.
Could you please treat all values as log10 of IC50 in nM?

| compound | measure | numeric_value |
| --- | --- | --- |
| Cn1ccc(-c2cnc(Nc3ccnc(-c4cnn(S(=O)(=O)C5CC5)c4)n3)cc2NCC2CCC(NCCF)CC2)n1 (stereo not drawn) | log10 IC50 | 0.45 |

Challenge: Look up log10 IC50 for this compound: O=S(=O)(C1CC1)n1cc(-c2nccc(Nc3cc(N[C@H]4CC[C@](O)(C(F)F)CC4)c(-c4ccn(C(F)F)n4)cn3)n2)cn1
Response given: 3.45

Challenge: Look up log10 IC50 for this compound: CC(C)Nc1cc(Nc2ccnc(-c3cnn(S(=O)(=O)C4CC4)c3)n2)ncc1-c1ccn(C(F)F)n1
Response given: 2.84

---

target: EGFR wildtype (WT) (Homo sapiens, UniProt P00533); experiment: Biochemical EGFR kinase assay (Lance Ultra TR-FRET), wildtype; details: IC50 WT (nM) 100 μM ATP, 100 μM ATP
measure: IC50 (nM)
Output spec: scalar in nM, unitless text.

| smiles_entry | target_under_test | IC50 [nM] |
| --- | --- | --- |
| Cn1ccc(-c2cnc(Nc3ccnc(-c4cnn(S(=O)(=O)C5CC5)c4)n3)cc2N[C@H]2CC[C@@H](O)CC2)n1 | EGFR wildtype (WT) (Homo sapiens, UniProt P00533) | 58.1 |
| Cn1ccc(-c2cnc(Nc3ccnc(-c4cnn(S(=O)(=O)C5CC5)c4)n3)cc2NC[C@H]2CC[C@](C)(O)CC2)n1 | EGFR wildtype (WT) (Homo sapiens, UniProt P00533) | 9600 |

Let us move to another entry and its IC50.
Challenge: Look up IC50 for this molecule: O=S(=O)(C1CC1)n1cc(-c2nccc(Nc3cc(N[C@@H]4CC[C@H](O)C4)c(-c4ccn(C(F)F)n4)cn3)n2)cn1
Response given: 5620

---

target: EGFR wildtype (WT) (Homo sapiens); experiment: Biochemical EGFR kinase assay (Lance Ultra TR-FRET), wildtype; conditions: Km ATP; read-out: IC50 WT (nM) Km ATP
measure: IC50 (nM)
Output spec: scalar in nM, unitless text.

| compound | output_unit | IC50 |
| --- | --- | --- |
| O=S(=O)(C1CC1)n1cc(-c2nccc(Nc3cc(NCC4CCC(NCCF)CC4)c(-c4ccn(C(F)F)n4)cn3)n2)cn1 (stereo not drawn) [Example 132] | nM | 5.2 |
| C[C@]1(O)CC[C@@H](Nc2cc(Nc3ccnc(-c4cnn(S(=O)(=O)C5CC5)c4)n3)ncc2-n2ccc(C(F)(F)F)n2)CC1 [Example 167] | nM | 129 |

Challenge: Look up IC50 for this compound: Cn1ccc(-c2cnc(Nc3ccnc(-c4cnn(S(=O)(=O)C5CC5)c4)n3)cc2NC2CCCC(NCCF)C2)n1 (stereo not drawn) [Example 225]
Response given: 27.4

---

Recorded IC50 values for a group of compounds are listed next.
biological target: EGFR wildtype (WT) (Homo sapiens, UniProt P00533); experiment: Biochemical EGFR kinase assay (Lance Ultra TR-FRET), wildtype; details: Km ATP; read-out: IC50 WT (nM) Km ATP
Output spec: scalar in nM, unitless text.

| compound | output_unit | numeric_value |
| --- | --- | --- |
| C[C@]1(O)CC[C@@H](Nc2cc(Nc3ccnc(-c4cnn(S(=O)(=O)C5CC5)c4)n3)ncc2-c2cn3c(n2)CCC3)CC1 | nM | 3.4 |
| CN(C)C(=O)[C@H]1CC[C@@H](Nc2cc(Nc3ccnc(-c4cnn(S(=O)(=O)C5CC5)c4)n3)ncc2-c2cc(C(F)(F)F)n(C)n2)CC1 | nM | 7.5 |
| Cc1nn(CC(F)(F)F)cc1-c1nccc(Nc2cc(N[C@H]3CC[C@@H](CCO)CC3)c(-c3ccn(C(F)F)n3)cn2)n1 | nM | 18.8 |
| Cn1nc(-c2cnc(Nc3ccnc(-c4cnn(S(=O)(=O)C5CC5)c4)n3)cc2NN2CCC(O)CC2)cc1C(F)(F)F | nM | 8.3 |
| O=S(=O)(C1CC1)n1cc(-c2nccc(Nc3cc(NC4CCC(O)(C5CC5)CC4)c(-c4ccn(C(F)F)n4)cn3)n2)cn1 (stereo not drawn) | nM | 34.5 |

Let us move to another entry and its IC50.
Challenge: Look up IC50 for this compound: Cn1nc(-c2cnc(Nc3ccnc(-c4cnn(S(=O)(=O)C5CC5)c4)n3)cc2N[C@H]2CC[C@@H](NCCF)CC2)cc1C(F)(F)F
Response given: 8.2
